Each recorded value in this set is attributed to the MegaScale stability set (Tsuboyama et al. 2023).

B1: r4_43_TrROS_Hall (parent)
chain: DLVTIKVPLENLEEIKKAAEKAGFKIVSISYDKENKEVTIVIEKKK

variants of: B1; test: folding stability dG (cDNA display proteolysis); higher = more stable; conditions: PBS, room temperature
testReadout: folding stability dG (kcal/mol)
Reply with just the number (in kcal/mol).

INSERT INTO assay_data (mutationannotation, testreadout, recordedvalue) VALUES
  ('A22S', 'folding stability dG', 3.56);

For this variant ( V41F ), measured folding stability dG is 3.76

Record S30G . Reported folding stability dG: 3.22

Reported folding stability dG of I15A : 4.01

Per the record, T39E has folding stability dG of 3.22

Form field folding stability dG, entry P8Y : 3.62

Note to self: folding stability dG recorded for K25C was 3.06

Please fill in: folding stability dG reported for V38D = 0.46

# variant I5N ; its folding stability dG = 2.61
